Assay: in vitro
Conditions: CC50 B/Florida/04/2006, cytotoxicity in the B/Florida/04/2006 assay
Overview of recorded CC50 for various compounds

>  <compound>
O=C(c1cccc(-c2ccccc2)c1)c1nnc(Cc2ccc(Br)cc2)o1 [Compound 69]

>  <CC50>
> 50 µM

$$$$
>  <compound>
CC(c1ccccc1)c1nnc(SCc2ccccc2-c2ccccc2)o1 (centres unmarked) [Compound 73]

>  <CC50>
> 50 µM

$$$$
>  <compound>
Brc1ccc(-c2nnc(SCc3ccccc3-c3ccccc3)o2)cc1 [Compound 42]

>  <CC50>
14.8 µM

$$$$
>  <compound>
Cc1ccccc1Sc1nnc(Cn2nc(C)c(Br)c2C)o1 [Compound 53]

>  <CC50>
7.91 µM

$$$$
>  <compound>
Cc1nn(Cc2nnc(SCc3ccccc3)o2)c(C)c1Br [Compound 14]

>  <CC50>
> 50 µM

$$$$
>  <compound>
COc1ccccc1CSc1nnc(Cn2nc(C)c(Br)c2C)o1 [Compound 10]

>  <CC50>
> 50 µM

$$$$
>  <compound>
Cc1nn(Cc2nnc(SC(c3ccccc3)c3ccccc3)o2)c(C)c1Br [Compound 25]

>  <CC50>
9.4 µM

$$$$
>  <compound>
Cc1nn(Cc2nnc(Cc3cccc(Cl)c3)o2)c(C)c1Br [Compound 46]

>  <CC50>
> 50 µM

$$$$
>  <compound>
Brc1ccc(Cc2nnc(SCc3ccccc3-c3ccccc3)o2)cc1 [Compound 22]

>  <CC50>
> 50 µM

$$$$
>  <compound>
O=S(=O)(Cc1ccccc1-c1ccccc1)c1nnc(Cc2ccc(Br)cc2)o1 [Compound 60]

>  <CC50>
8.46 µM

$$$$
>  <compound>
CCn1c(Cn2nc(C)c(Br)c2C)nnc1SCc1ccccc1-c1ccccc1 [Compound 24]

>  <CC50>
> 50 µM

$$$$
